This collection of values is drawn from paper PMC12670160.

System: M. mycetomatis strain mm55
settings: primary screen, metabolic activity vs growth control; 96 h, 2 µM; inhibitor
Where a name gives a salt, the structure may show the parent alone. In all, about 5,300 compounds went through this assay and about 130 (2.5%) showed an effect of 50% or more. This excerpt belongs to a sample that is enriched for strong results.
measured-parameter: % viability (%)
Numeric answer only, unit % assumed.

Worked set:
>>> quantitative_readout("CCOC(=O)Nc1cc2c(c(N)n1)NC(c1ccccc1)=C(C)N2")
3.846
>>> quantitative_readout("CC(C)NCC(O)c1ccc([N+](=O)[O-])cc1 (centres unmarked)")
49.56
>>> quantitative_readout("CC(C)(C)NC[C@@H](O)COc1cccc2c1CCCC2=O")
116.9
>>> quantitative_readout("Cc1cccc(OCC(O)CNC(C)(C)C)c1C (centres unmarked)")
46.41
>>> quantitative_readout("C[C@@H]1[C@H](O)[C@@H](C)/C=C/C=C/CC/C=C/C=C/C=C/C=C/[C@H](O[C@@H]2O[C@H](C)[C@@H](O)[C@H](N)[C@@H]2O)C[C@@H]2O[C@](O)(C[C@@H](O)[C@H](O)CC[C@@H](O)C[C@@H](O)C[C@@H](O)CC(=O)O[C@H]1C)C[C@H](O)[C@H]2C(=O)O")
93.36
>>> quantitative_readout("CC(C)CCN1c2nc(Nc3cc(F)c(O)c(F)c3)ncc2N(C)C(=O)C1C (centres unmarked)")
46.32
>>> quantitative_readout("CC(=O)NC1[C@@H](O)OC(CO)[C@@H](O)[C@H]1O (some centres unmarked)")
104.5
>>> quantitative_readout("COc1cc2c(NC3CCN(C)CC3)nc(N3CCCN(C)CC3)nc2cc1OCCOCCN(C)C")
65.32

Challenge: System M. mycetomatis strain mm55. Read-out % viability. Item NC(CC(F)C(=O)O)C(=O)O (centres unmarked) . Report value.
Response given: 63.49

Challenge: Find the measured % viability of CC(C)NCC(O)c1ccc(O)c(O)c1 (centres unmarked) [ONC0000608, isoproterenol hydrochloride] with M. mycetomatis strain mm55 as test system.
Response given: 81.88

Challenge: Report % viability on M. mycetomatis strain mm55 for this entry: CCCCCCCNS(=O)(=O)c1cccc2c(Cl)cccc12
Response given: 68.77

Challenge: State % viability on M. mycetomatis strain mm55. Entry: Nc1nc(=O)n([C@H]2C[C@H](O)[C@@H](CO)O2)cc1F
Response given: 7.324

Challenge: Provide % viability, recorded with M. mycetomatis strain mm55, of CC(=O)N[C@H]1[C@H]([C@H](O)[C@H](O)CO)OC(C(=O)O)=C[C@@H]1N=C(N)N
Response given: 62.68

Challenge: Jot down % viability (M. mycetomatis strain mm55) of CN1c2c(nc(N)[nH]c2=O)NC[C@@H]1CNc1ccc(C(=O)N[C@@H](CCC(=O)O)C(=O)O)cc1 [ONC0002220, levomefolate calcium] .
Response given: 182.5

Challenge: Determine reported % viability for CN1C(C(=O)Nc2ccccn2)C(=O)c2sccc2S1(=O)=O (centres unmarked) ; test system: M. mycetomatis strain mm55.
Response given: 126.3

Challenge: # return % viability of O=c1[nH]c(=O)n([C@H]2C[C@H](O)[C@@H](CO)O2)cc1F (system: M. mycetomatis strain mm55)
Response given: 24.01

Challenge: Determine reported % viability for COC(=O)[C@H](CCCNC(=N)N)NS(=O)(=O)c1ccc(C)cc1 ; test system: M. mycetomatis strain mm55.
Response given: 63.05
